Hey, just so you know, these numbers are from ChEMBL document CHEMBL5550184.

EXPERIMENT_NOTES: Volume of distribution at steady state in Wistar Hannover rat at 1 mg/kg, iv measured upto 24 hrs by LC-MS/MS analysis
Type: ADME, organism-based
EXPERIMENTAL_CONTEXT: Wistar Hannover, in vivo, read-out: Vdss
Positions of bridges follow the written chain, without caps; N, C: chain ends. Non-standard residues stand in square brackets, D forms with d. Residues, ends and D or L forms follow the SMILES beside them. *: point of attachment. hPhe(3-Cl-4-CF3) = N[C@@H](CCc1ccc(C(F)(F)F)c(Cl)c1)C(=O)O; NMeGly(cPent) = CN[C@H](C(=O)O)C1CCCC1; NMeCha = CN[C@@H](CC1CCCCC1)C(=O)O; NMeD = CN[C@@H](CC(=O)O)C(=O)O; NMeL = CN[C@@H](CC(C)C)C(=O)O; Morpholide = C1CN(*)CCO1; NMeA = CN[C@@H](C)C(=O)O; Ac5c = NC1(C(=O)O)CCCC1; Aze = O=C(O)[C@@H]1CCN1; Sar = CNCC(=O)O
ASSAY_ENDPOINT: Vd

>  <COMPOUND>
CC[C@H](C)[C@@H]1NC(=O)[C@H](CC(C)C)N(C)C(=O)C[C@@H](C(=O)N2CCOCC2)N(C)C(=O)[C@H](C2CCCC2)N(C)C(=O)C2(CCCC2)NC(=O)[C@@H]2CCCN2C(=O)[C@H](CCc2ccc(C(F)(F)F)c(Cl)c2)NC(=O)CN(C)C(=O)[C@H](CC2CCCCC2)N(C)C(=O)[C@@H]2CCN2C(=O)[C@H](C)N(C)C1=O ([NMeL]I[NMeA][Aze][NMeCha][Sar][hPhe(3-Cl-4-CF3)]P[Ac5c][NMeGly(cPent)][NMeD]-Morpholide; lactam N-11)

>  <RECORDED_RESULT>
0.82 L/kg

$$$$
